- Tested on: NCI-H23
- measurementDescription: NCI tumour cell line growth inhibition, 48 h
Activity calls are given as the source filed them. Cut-off read from the data, not from the text of the source: active = GI50 up to about 1.1 µM and inactive = higher.
measuredAttribute: GI50

O=c1c2ccccc2sc2cccc(NCCCN3CCN(CCCNc4cccc5sc6ccccc6c(=O)c45)CC3)c12	> 100 µM (inactive)
CC(=O)C1C(=O)C(=O)N(c2ccccc2N2C(=O)C(=O)C(C(C)=O)C2=O)C1=O (stereo unspecified)	> 100 µM (inactive)
CC(C)c1cc(CN(C)C)c(O)c(C(C)(C)C)c1	34.7 µM (inactive)
COC(C[C@H]1CCCC[C@]1(O)/C(=C\CO[Si](C(C)C)(C(C)C)C(C)C)Sc1ccccc1)OC	25.8 µM (inactive)
c1ccc2c(c1)C1CCCCCC21N1CCOCC1 (stereo unspecified)	> 100 µM (inactive)

Input line: Record request: GI50 value, item CCOC(=O)C1C(=O)c2ccccc2CN1Cc1ccccc1 (stereo unspecified)
Output line: > 100 µM (inactive)

* * *

- Test system: MOLT-4
- measurementDescription: NCI tumour cell line growth inhibition, 48 h
Activity calls are given as the source filed them. Cut-off read from the data, not from the text of the source: active = GI50 up to about 1.1 µM and inactive = higher.
Allowed answers: active, inactive

C=CC[C@H](C)CCC(=O)N1[C@H]2CC3CC[C@@]2(CS1(=O)=O)C3(C)C	inactive
Cc1cc[n+]2c(c1)-c1cc(C)cc[n+]1CC2	inactive
CCSc1nc2sc(C)c(C)c2c(=O)n1-c1ccc(C(=O)O)cc1	inactive
CN(C)/C=N/NC(=O)/C(C#N)=C/N(C)C	inactive
CC(C)=CC(C(O)c1ccccc1)S(=O)(=O)c1nccn1C (stereo not drawn)	inactive

Input line: What outcome does the record of this test show for "Sc1ccc2ccccc2c1CNCc1ccccc1" ?
Output line: inactive

Input line: What outcome does the record of this test show for CCOC(=O)CC1(c2cccc3ccccc23)OC(=O)c2ccccc21 (stereo not drawn) ?
Output line: inactive

Input line: What outcome does the record of this test show for Cc1cccc(C)c1N1C(=O)C(=O)C(c2nc3ccccc3s2)/C(=N/c2cccc3c(=O)[nH][nH]c(=O)c23)C1=O (stereo not drawn) ?
Output line: inactive

Input line: What outcome does the record of this test show for "C=CC1=C(C)c2cc3[nH]c(c4c5nc(cc6[nH]c(cc1n2)c(C)c6CC)C(C)=C5C(=O)[C@@H]4C(=O)OC)[C@@H](CCC(=O)O)[C@@H]3C" ?
Output line: active

* * *

Exercise: state measured GI50 for each of the molecules provided.
- Test system: OVCAR-8
- measurementDescription: NCI tumour cell line growth inhibition, 48 h
Active and inactive are the calls of the source. Cut-off read from the data, not from the text of the source: active = GI50 up to about 1.1 µM and inactive = higher.

Completed entries (count: 5):
C[C@@H](NC(=O)[C@@H]1C[C@]1(C)COC(=O)c1cc([N+](=O)[O-])cc([N+](=O)[O-])c1)c1cccc2ccccc12	> 100 µM (inactive)
CC(=O)N1N=C(c2ccc3ccccc3c2O)CC1c1ccc(N(C)C)cc1 (stereo not given)	> 100 µM (inactive)
COc1cc(CC(C(=O)O)C(=O)O)c(OC)cc1CC(C(=O)O)C(=O)O	> 100 µM (inactive)
Cc1cc(C)nc(NC(P(=O)(O)O)P(=O)(O)O)n1	> 100 µM (inactive)
COc1ccc(OC)c(-c2cc(=O)c3c(OC)c(OC)c(OC)c(OC)c3o2)c1	25.7 µM (inactive)

// input: 8 molecules below; output: GI50 for each
1. CC1(C)CC2=C(Sc3ccccc3N2)C(=O)C1C(=O)C(=O)Nc1cc(Cl)ccc1Cl (stereo not given)
2. Fc1ccc(C2SCc3nc4ccccc4n32)cc1 (stereo not given)
3. O=S(=O)(C1=CC(S(=O)(=O)c2ccccc2)COC1)c1ccccc1 (stereo not given)
4. CN(C)CN(C)c1nc(N(C)C)nc(N(C)CN(C)C)n1
5. CN(C)C(=S)/N=c1\ssc(=S)n1Cc1cccs1
6. COc1ccc(/C=c2\sc3n(c2=O)C(N)=C(C#N)C(c2ccc(OC)cc2)C=3c2nc3ccccc3[nH]2)cc1 (stereo not given)
7. NC1CC(n2ccc(=O)[nH]c2=O)OC1C(O)CO (stereo not given)
8. C=CC1=C(C)c2cc3[nH]c(c4c5nc(cc6[nH]c(cc1n2)c(C)c6CC)C(C)=C5C(=O)[C@@H]4C(=O)OC)[C@@H](CCC(=O)O)[C@@H]3C

Output line:
1: > 100 µM (inactive); 2: 49 µM (inactive); 3: > 100 µM (inactive); 4: 27.9 µM (inactive); 5: 4.99 µM (inactive); 6: > 10 µM (inactive); 7: > 100 µM (inactive); 8: 3.52 µM (inactive)

// input: 7 molecules below; output: GI50 for each
1. COc1cc2c(cc1OC)C(CC1=C(c3ccccc3)CN3CCc4cc(OC)c(OC)cc4C3C1)NCC2 (stereo not given)
2. CC(C)C(Sc1nc(-c2ccccc2)c(-c2ccccc2)[nH]1)C(=O)N/N=C/c1ccc([N+](=O)[O-])cc1 (stereo not given)
3. Cc1cc2c(cc1CO)N1Cc3cc(C)c(CO)cc3N(C2)C1
4. CC(C)(CCc1nc2ccccc2[nH]1)C(=O)O
5. O=C1C(O)=C(CN(CCCl)CCCl)C(=O)c2ccccc21
6. CC(C)C1=Cc2ccc3c(c2C(=O)C1=O)CCCC3
7. O=[N+]([O-])c1ccc(Cl)c(C2CC(c3cccc4ccccc34)=Nc3ccccc3[S+]2[O-])c1 (stereo not given)

Output line:
19.3 µM (inactive)
29.1 µM (inactive)
> 100 µM (inactive)
> 100 µM (inactive)
76.9 µM (inactive)
5.64 µM (inactive)
8.77 µM (inactive)
